- Test system: NCI-H460
- Protocol: NCI tumour cell line growth inhibition, 48 h
Structures can show the parent of a compound that is named as a salt. Activity calls are given as the source filed them. No stated cut-off is given here; in the data, active = GI50 up to about 1.1 µM and inactive = higher.
Measurement Label: GI50

C[N+](CCCl)(CCCl)Cc1cccc2cccc([N+](=O)[O-])c12 : 53.8 µM (inactive)
CC(=O)/N=C1\NC(=O)/C(=C/c2ccccc2Cl)N1C : > 100 µM (inactive)
COc1ccc(CC#C/C=C/C(=O)NCC(C)C)cc1 : > 100 µM (inactive)
CC(=O)Oc1ccc(O)c2c1CCCC2 : > 31.6 µM (inactive)
CC1CC(=O)Nc2nc3ccccc3n21 (stereo not drawn) : > 100 µM (inactive)

Given the molecule C=C1CCC(O)C/C1=C/C=C1\CCCC2(C)C1CCC2C(C)CCCC(C)C (stereo not drawn) , what is its reported GI50? 20.4 µM (inactive)

Also, Cc1nccc2c1[nH]c1cc(O)ccc12 [HARMOL HYDROCHLORIDE] please. 37.4 µM (inactive)

Also, COC(=O)[C@@]12CC3CN(Cc4c1[nH]c1ccccc41)C2CC3=O please. > 100 µM (inactive)

Also, Brc1ccc(C2SCc3nc4ccccc4n32)cc1 (stereo not drawn) please. 12.9 µM (inactive)

Also, COC(=O)[C@@]1(C)C(=O)CC[C@@H]1C=O please. > 100 µM (inactive)

Also, O=C(O)C(Br)Cc1ccc2c(c1)OCO2 (stereo not drawn) please. > 100 µM (inactive)

Also, Cc1ccc(S(=O)(=O)N2CCN(S(=O)(=O)c3ccc(C)cc3)CCN(S(=O)(=O)c3ccc(C)cc3)Cc3cc(Br)c(Br)cc3CN(S(=O)(=O)c3ccc(C)cc3)CC2)cc1 please. > 100 µM (inactive)

# credit: ChEMBL document CHEMBL1201862
